Method Summary: qHTS of pediatric cancer cell lines to identify multiple opportunities for drug repurposing: Primary screen for BT-12 cells (AID 1347101); note: nearly all actives have a fitted effect of over 25% in size
Test Parameters: BT-12 viability, CellTiter-Glo luminescence, 48 h; series mostly up to 57.3 µM
Inconclusive results are not listed. Active and inactive are the calls of the source. Calls come from the whole dose curve; as a rule, active = well fitted cell-killing curve with a large enough effect; inconclusive = small, poorly fitted or top-dose-only effect; inactive = flat fitted curve, though single readings scatter.
Labels: active, inactive

{"columns": ["Compound", "Class"],
 "data": [
  ["C[C@@H](O[C@H]1OCCN(Cc2n[nH]c(=O)[nH]2)[C@H]1c1ccc(F)cc1)c1cc(C(F)(F)F)cc(C(F)(F)F)c1", "active"],
  ["CC(C)(C)C(O)/C=C/c1ccc2c(c1)OCO2 (stereo not given)", "inactive"],
  ["O=[N+]([O-])c1ccc(O)c2ncccc12", "active"],
  ["COc1cc(/C=C/C(N)=O)cc(OC)c1OC", "inactive"],
  ["O=C1[C@@H]2[C@H]3CC[C@H](C3)[C@@H]2C(=O)N1CCCCN1CCN(c2ncccn2)CC1", "inactive"]
]}

* * *

Method Summary: Cell Viability - LYMP2-004 (AID 966);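 note: cells exposed to compound for 24 h; nearly all actives have a fitted effect of over 65% in size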
Test Parameters: LYMP2-004 lymphoblastoid cell viability, qHTS; series mostly up to 92.2 µM
Results filed as inconclusive are left out. Activity calls are given as the source filed them. Calls follow the shape of the dose curve; as a rule, active = well fitted cell-killing curve with a large enough effect; inconclusive = small, poorly fitted or top-dose-only effect, or effect the other way; inactive = no such curve, though single readings can be large or run the other way.
Labels: Yes (active), No (inactive)

{"columns": ["Molecule", "Class"],
 "data": [
  ["Nc1cccc2c(N)cccc12", "No"],
  ["Cc1ccc(O)cc1", "No"],
  ["O=C(c1ccccc1)c1ccccc1", "No"],
  ["Cc1cc(C(C)(C)C)c(O)c(C(C)(C)C)c1", "No"],
  ["CCCCC(CC)COC(=O)c1ccccc1C(=O)O (stereo unspecified)", "No"],
  ["Nc1ccc(O)cc1", "Yes"],
  ["c1ccc2occc2c1", "No"],
  ["CC(C)(c1ccc(O)cc1)c1ccc(O)cc1", "No"],
  ["Oc1ccccc1", "No"],
  ["OCc1c[nH]c2ccccc12", "No"],
  ["COc1cc(C=O)ccc1O", "No"]
]}

* * *

Tested on: JEG-3
Method Summary: Primary qHTS to identify gynecologic anti-cancer compounds using libraries of approved drugs and bioactive compounds (AID 1345084); note: nearly all actives have a fitted effect of over 55% in size
Test Parameters: Gynecologic cancer cell panel viability, ATPlite luminescence, 48 h; series mostly up to 57.5 µM
Records with an inconclusive call do not appear. The source made the active and inactive calls. The call rests on the fitted dose curve; in most records, active means well fitted cell-killing curve with a large enough effect; inconclusive means small, poorly fitted or top-dose-only effect, or effect the other way; inactive means flat fitted curve, though single readings scatter.

{"columns": ["Molecule", "outcome"],
 "data": [
  ["CCOC(=O)c1ccc(OCCN2C[C@H](O)[C@@H](O)[C@H](O)[C@H]2CO)cc1", "inactive"],
  ["COC(=O)C1=C(C)NC(C)=C(C(=O)OCCc2ccc(N3CCN(C(c4ccccc4)c4ccccc4)CC3)cc2)C1c1cccc([N+](=O)[O-])c1 (configuration not stated)", "inactive"],
  ["O=C1CC(c2ccc(Cl)cc2)CC(=O)N1", "inactive"],
  ["COc1ccc(CCC(C)=O)cc1", "inactive"],
  ["Cc1sccc1Br", "inactive"],
  ["O=C(CCC1CCN(Cc2ccccc2)CC1)c1ccc2c(c1)NCCCC2", "inactive"],
  ["Nc1cc(C(F)(F)F)ccc1S", "inactive"]
]}

* * *

Method Summary: qHTS of pediatric cancer cell lines to identify multiple opportunities for drug repurposing: Primary screen for SK-N-SH cells (AID 1347098); note: nearly all actives have a fitted effect of over 65% in size
Test Parameters: SK-N-SH viability, CellTiter-Glo luminescence, 48 h; series mostly up to 57 µM
Procedure: Drug repurposing or repositioning has been offered as a strategy for drug development in oncology programs. […] [1] Shen, M et al. Quantitative high-throughput phenotypic screening of pediatric cancer cell lines identifies multiple opportunities for drug repurposing. […] Cells were assayed in growth media at a density of 500-1,000 cells/well. […] After a 15 min incubation at room temperature, samples were analyzed for luminescence intensity using a ViewLux High-throughput CCD imager equipped with clear filters.
Results filed as inconclusive are left out. Calls of active or inactive are those of the source. Calls follow the shape of the dose curve; as a rule, active = well fitted cell-killing curve with a large enough effect; inconclusive = small, poorly fitted or top-dose-only effect; inactive = no such curve, though single readings can be large or run the other way.
Labels: active, inactive

{"columns": ["Molecule", "Class"],
 "data": [
  ["CCOC(=O)c1ccc(OCCN2C[C@H](O)[C@@H](O)[C@H](O)[C@H]2CO)cc1", "inactive"],
  ["CCNC(=O)NCCCOc1cccc(CN2CCCCC2)c1", "inactive"],
  ["CC(=O)N(c1onc(C)c1C)S(=O)(=O)c1ccc(N)cc1", "inactive"],
  ["O=C(Nc1ccc(Cl)cc1)Nc1ccc(Cl)c(Cl)c1", "active"],
  ["O=C(CCC1CCN(Cc2ccccc2)CC1)c1ccc2c(c1)NCCCC2", "active"],
  ["C=CCOc1cc(Cl)ccc1C(=O)NCCN(CC)CC", "inactive"],
  ["CCOC(=O)C(O)c1ccccc1 (configuration not stated)", "inactive"],
  ["CCOC(=O)c1cc(=O)c2c(OCC(COc3cccc4oc(C(=O)OCC)cc(=O)c34)OC(=O)[C@@H](N)CCCCN)cccc2o1", "inactive"],
  ["CCCCOCCOC(=O)c1cccnc1", "inactive"],
  ["CC(=O)Nc1c(I)c(NC(C)=O)c(I)c(C(=O)O)c1I", "inactive"],
  ["CC(C)(C)c1ccc(C(=O)CCCCl)cc1", "inactive"],
  ["O=c1[nH]c2ccccc2c(=O)n1CCCl", "inactive"]
]}

* * *

Method Summary: qHTS of pediatric cancer cell lines to identify multiple opportunities for drug repurposing: Confirmatory screen for Rh30 cells (AID 1347126); note: nearly all actives have a fitted effect of over 55% in size
Test Parameters: Rh30 rhabdomyosarcoma cell viability; series mostly up to 45.9 µM
Inconclusive results are not listed. Calls of active or inactive are those of the source. Calls follow the shape of the dose curve; as a rule, active = well fitted cell-killing curve with a large enough effect; inconclusive = small, poorly fitted or top-dose-only effect, or effect the other way; inactive = no such curve, though single readings can be large or run the other way.
Labels: active, inactive

{"columns": ["Smiles Input", "Class"],
 "data": [
  ["CCCCC(=O)OCC(=O)[C@H]1[C@H](C)C[C@H]2[C@@H]3C[C@H](F)C4=CC(=O)C=C[C@]4(C)[C@@]3(F)[C@@H](O)C[C@@]21C", "active"],
  ["Cc1nc(N)nc(N)c1-c1ccc(Cl)c(Cl)c1", "inactive"],
  ["O=c1[nH]sc2cc(Cl)ccc12", "active"],
  ["CC[C@@]1(O)C(=O)OCc2c1cc1n(c2=O)Cc2c-1nc1ccccc1c2/C=N/OC(C)(C)C", "active"],
  ["CCC1(c2cnc[nH]2)Cc2ccccc2C1", "active"]
]}

* * *

Test system: CASKI
Method Summary: Primary qHTS to identify gynecologic anti-cancer compounds using libraries of approved drugs and bioactive compounds (AID 1345084); note: nearly all actives have a fitted effect of over 55% in size
Test Parameters: Gynecologic cancer cell panel viability, ATPlite luminescence, 48 h; series mostly up to 57.5 µM
Inconclusive results are not listed. Activity calls are given as the source filed them. The call rests on the fitted dose curve; in most records, active means well fitted cell-killing curve with a large enough effect; inconclusive means small, poorly fitted or top-dose-only effect, or effect the other way; inactive means flat fitted curve, though single readings scatter.
Labels: 1 (active), 0 (inactive)

{"columns": ["Smiles Input", "Class"],
 "data": [
  ["COC(=O)c1cc(Cl)ccc1OC", 0],
  ["O=C(COCCOCCOCC(=O)Nc1c(I)cc(I)c(C(=O)O)c1I)Nc1c(I)cc(I)c(C(=O)O)c1I", 0],
  ["CC(=O)N(c1onc(C)c1C)S(=O)(=O)c1ccc(N)cc1", 0],
  ["Cc1c(N)cccc1C(F)(F)F", 0],
  ["CC(C)(C)c1nnc(NS(=O)(=O)c2ccccc2)s1", 0],
  ["O=C1NCCN1CCN1CCC(c2cn(-c3ccc(F)cc3)c3ccc(Cl)cc23)CC1", 1]
]}

* * *

Method Summary: Primary qHTS for inhibitors of nuclear receptor binding SET domain protein 2 (NSD2) in an isogenic RCH-ACV NSD2 p.E1099K mutant (9B) (AID 1645876); note: nearly all actives have a fitted effect of over 70% in size; note: potency is the fitted concentration of half-maximal effect
Test Parameters: RCH-ACV (leukaemia line) NSD2 E1099K (9B) viability, CellTiter-Glo, 72 h; series mostly up to 44.9 µM
Inconclusive results are not listed. Activity calls are given as the source filed them. The call rests on the fitted dose curve; in most records, active means well fitted inhibition curve with a large enough effect; inconclusive means small, poorly fitted or top-dose-only effect; inactive means flat fitted curve, though single readings scatter.

{"columns": ["Compound", "Potency"],
 "data": [
  ["Cc1ccccc1C(=O)N1CC/C(=N\\OS(=O)(=O)O)c2ccc(Cl)cc21", "inactive"],
  ["Fc1ccc(C(c2ccc(F)cc2)N2CCNCC2)cc1", "inactive"],
  ["O=C(Oc1ccccc1)c1ccccc1O", "inactive"],
  ["Cc1ccccc1N1CCN(CCc2nnc3n2CCCC3)CC1", "inactive"],
  ["CC(C)(C)NCC(O)COc1ccccc1OCC1CCCO1 (stereo not drawn)", "inactive"],
  ["CCOC(=O)CN1CCCC1=O", "inactive"],
  ["CCOC(=O)Oc1ccc(CCNC(=O)[C@H](CCSC)NC(C)=O)cc1OC(=O)OCC", "inactive"],
  ["CC(C)OP(=O)(CP(=O)(OC(C)C)OC(C)C)OC(C)C", "inactive"],
  ["N#CC1(c2ccc(F)cc2)CCC(=O)CC1", "inactive"],
  ["O=C(O)CCCC[P+](c1ccccc1)(c1ccccc1)c1ccccc1", "inactive"],
  ["COC(=O)CCCCC(CCSS/C(CCO)=C(\\C)N(C=O)Cc1cnc(C)nc1N)SC(C)=O (stereo not drawn)", "inactive"],
  ["Cc1ncc(CO)c(CO)c1O", "inactive"],
  ["O=C1CC(c2ccc(Cl)cc2)CC(=O)N1", "inactive"],
  ["CC(C)(C)c1ccc(C(=O)CCCCl)cc1", "inactive"],
  ["CN1CCN(N)CC1", "inactive"],
  ["OCc1c[nH]c2ccccc12", "24.3 µM (active)"],
  ["CN(C)C(=O)CNC(=O)Cc1ccccc1", "inactive"],
  ["Brc1ccc([C@H]2CN3CCSC3=N2)cc1", "inactive"],
  ["C#CC(C)(CC)OC(=O)c1ccccc1C(=O)O (stereo not drawn)", "inactive"],
  ["CSc1ccc(/C=C2/C(C)=C(CC(=O)O)c3cc(F)ccc32)cc1", "inactive"],
  ["COc1ccc(CCC(C)=O)cc1", "inactive"],
  ["Nc1cccc2c(N)cccc12", "24.3 µM (active)"],
  ["CCN(CC)CCN", "inactive"],
  ["C=CCOc1cc(Cl)ccc1C(=O)NCCN(CC)CC", "inactive"],
  ["OCCCc1ccccc1", "inactive"],
  ["CCCOc1ccc2c(c1)CC[C@@H]1[C@@H]2CC[C@]2(C)C(OC)CC[C@@H]12 (stereo partly drawn)", "inactive"],
  ["CC(=O)c1cc2ccccc2s1", "inactive"],
  ["C[C@@H]1CCC[C@H](C)N1CCCC(O)(c1ccccc1)c1ccccn1 (stereo partly drawn)", "inactive"]
]}

Cited source: PubChem BioAssay (NCATS)
